Test system: Escherichia coli TOP10;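 also: peptides expressed intracellularly from a pBAD plasmid library in pooled LB shake-flask culture, induced with 0.3% L-arabinose, DNA abundance read by NGS, three biological replicates, DESeq2 with apeglm shrinkage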
measurement_notes: shrunken log2 fold change of peptide-encoding DNA abundance (4.5 h post-induction vs induction); higher = less antimicrobial activity (less host growth inhibition)
applied_conditions: time post-induction: 4.5 h; library: site-saturation at positions 5, 18, 19, 20
Returns one of Satisfied or Not satisfied; Satisfied when shrunken log2 fold change is >= -0.1.

Sample answers from the record:
[[record]]
ordered_residues = "RRIRVRPPRLPRPRPRPWQMPRP"
assigned_class = "Satisfied"

[[record]]
ordered_residues = "RRIRYRPPRLPRPRPRPNQCPRP"
assigned_class = "Not satisfied"

[[record]]
ordered_residues = "RRIRVRPPRLPRPRPRPSTFPRP"
assigned_class = "Not satisfied"

[[record]]
ordered_residues = "RRIRKRPPRLPRPRPRPFLTPRP"
assigned_class = "Not satisfied"

[[record]]
ordered_residues = "RRIRFRPPRLPRPRPRPQLNPRP"
assigned_class = "Not satisfied"

[[record]]
ordered_residues = "RRIRERPPRLPRPRPRPSSDPRP"
assigned_class = "Not satisfied"

[[record]]
ordered_residues = "RRIRSRPPRLPRPRPRPYRDPRP"
assigned_class = "Not satisfied"

[[record]]
ordered_residues = "RRIRNRPPRLPRPRPRPVDYPRP"
assigned_class = "Satisfied"


Query: Threshold query (shrunken log2 fold change >= -0.1) on `RRIRWRPPRLPRPRPRPPILPRP`
Result: Satisfied

Query: Threshold query (shrunken log2 fold change >= -0.1) on `RRIRYRPPRLPRPRPRPEPTPRP`
Result: Satisfied

From: the supplement of paper PMC9112550
